Source: PubChem BioAssay (NCI)

# System: HT29 colon
# EXPERIMENT DESCRIPTION: NCI-60 one-dose screen, 48 h (100 = growth as untreated, 0 = no growth, -100 = all killed)
# COND: 10 µM unless noted
This is part of a sample that, as a whole, favours compounds with a hit. Of some 83,000 tested, about 20% had one in any assay.
Known growth of a selection of molecules
Write the value in % as a bare number.

{"columns": ["MOLECULE", "SUBJECT OF TEST", "growth (%)"],
 "data": [
  ["COC(=O)C1=Nc2ccc(F)cc2/C1=C\\c1sc(Nc2ccc(O)cc2)nc1O", "HT29 colon", 106]
]}

Prompt: # input molecule: O=C1C(Cl)=C(NCCN2CCOCC2)C(=O)c2ncccc21 ; wanted: its growth
Response: -27.6

Prompt: # input molecule: Cn1cc(-c2nonc2-c2c[nH]c3ccc(F)cc23)c2cc(Br)ccc21 ; wanted: its growth
Response: 20.9

---

# Test system: UO-31 renal
# EXPERIMENT DESCRIPTION: NCI-60 one-dose screen, 48 h (100 = growth as untreated, 0 = no growth, -100 = all killed)
# COND: 10 µM unless noted
About 83,000 compounds went through this panel and 20% of them were active in at least one assay; those are over-represented in the sample as a whole.
ATTRIBUTE MEASURED: growth (%)
Write the value in % as a bare number.

Prompt: What measured growth is associated with CC/C(Cc1ccccc1)=C(\c1ccc(OCCN2CCCCCC2)cc1)c1ccc(OC(=O)NCc2ccccc2)cc1 on UO-31 renal?
Response: 59.2

Prompt: What measured growth is associated with Nc1c(C(=O)Nc2cccc3ncccc23)sc2nc3c(cc12)C(=O)CCC3 on UO-31 renal?
Response: 58.3

Prompt: What measured growth is associated with CC1COCC(C)N1C1=C(Cl)C(=O)c2ccccc2C1=O (centres undefined) on UO-31 renal?
Response: 59

Prompt: What measured growth is associated with CC(C)CCC[C@@H](C)C1CCC2C3CCC4=C/C(=N/OCCN(C)C)CC[C@]4(C)C3CC[C@@]21C (some centres undefined) on UO-31 renal?
Response: 61.7

---

Known growth of a selection of compounds
# Tested on: HS 578T breast
# EXPERIMENT DESCRIPTION: NCI-60 one-dose screen, 48 h (100 = growth as untreated, 0 = no growth, -100 = all killed)
# COND: 10 µM unless noted
The panel holds about 83,000 compounds, 20% with a hit somewhere; the sample as a whole holds those more often.
Write the value in % as a bare number.

Some entries whose results are on file:
{"columns": ["MOL", "growth (%)"],
 "data": [
  ["COc1cccc(/C=C/C(=O)c2cc3c(N)c(C(=O)Nc4ccccc4C)sc3nc2C)c1", 13.9],
  ["Cc1cc2oc(=O)cc(CP(=O)(O)O)c2cc1O", 94.5]
]}

Prompt: # input compound: COc1ccc(OC)c(-c2cn3nc(-c4c[nH]c5ccc(Br)cc45)sc3n2)c1 ; wanted: its growth
Response: 43.7

Prompt: # input compound: COc1ccc(C(C)=O)cc1S(N)(=O)=O ; wanted: its growth
Response: 91.6

Prompt: # input compound: Cc1ccc(-c2nc(C#N)c(S(=O)(=O)NCCO)o2)cc1 ; wanted: its growth
Response: 107

Prompt: # input compound: CC/C(Cc1ccccc1)=C(\c1ccc(OCCN2CCCCCC2)cc1)c1ccc(OC(=O)NCc2ccccc2)cc1 ; wanted: its growth
Response: 78.6

Prompt: # input compound: CCN(CC)CCOc1nc2c3ccc(Cl)cc3nn2c2ccccc12 ; wanted: its growth
Response: 55.2

Prompt: # input compound: O=C(O)c1cccc(N/C=C/C(=O)c2cc3cc(Br)ccc3oc2=O)c1 ; wanted: its growth
Response: 94.7

---

# Tested on: A549/ATCC NSCLC
# EXPERIMENT DESCRIPTION: NCI-60 one-dose screen, 48 h
# COND: 10 µM unless noted
The panel holds about 83,000 compounds, 20% with a hit somewhere; the sample as a whole holds those more often. The source made the active and inactive calls. The calls were made as follows: active = growth percent below 10; inactive = the rest.
Please state which outcome applies, choosing from Yes = active, No = inactive

Example cases with answers are listed next.
{"columns": ["COMPOUND", "CATEGORY"],
 "data": [
  ["O=c1ccc2nc(C(F)(F)F)nn(-c3ccccc3)c-2c1", "No"],
  ["CCOC(=O)c1n[nH]n2c1nc(=O)c1cnn(C)c12", "No"],
  ["COc1cccc2c(N=NC(=O)c3ccc(S(N)(=O)=O)cc3)c(O)[nH]c12", "No"],
  ["CCN(CC)c1ccc(/C=N/NC(=O)c2ccc(Nc3ccnc(C(F)(F)F)c3)cc2)c(O)c1", "No"],
  ["Cc1c2cc[nH]c(=O)c2c(C)c2c1[nH]c1ccc(OC(=O)c3ccccc3)cc12", "Yes"]
]}

Prompt: GET /call?item= CCOC(=O)c1c(C)nn(CC(O)c2ccccc2)c1NC(=O)Nc1cccc(F)c1 (stereo unspecified) returns the recorded outcome of this test.
Response: No

---

# Test system: M14 melanoma
# EXPERIMENT DESCRIPTION: NCI-60 one-dose screen, 48 h
# COND: 10 µM unless noted
This is part of a sample that, as a whole, favours compounds with a hit. Of some 83,000 tested, about 20% had one in any assay. Calls of active or inactive are those of the source. The calls were made as follows: active = growth percent below 10; inactive = the rest.
Please state which outcome applies, choosing from active, inactive

Example cases with answers are listed next.
{"columns": ["MOLECULE", "CATEGORY"],
 "data": [
  ["CCN(CCO)CC(C)Nc1ccc([N+](=O)[O-])c2sc3ccccc3c(=O)c12 (centres undefined)", "inactive"],
  ["O=C1/C(=C/c2ccc(C(F)(F)F)cc2)COc2ccc(O)cc21", "inactive"],
  ["Cc1[nH]c(C(=O)Nc2ccc(C(N)=O)cc2NC(C)C)c(Cl)c1Cl", "inactive"],
  ["Cc1cc(N2CCCCC2)nc(N2CCN(CC(=O)Nc3ccc4c(ccn4Cc4ccccc4)c3)CC2)n1", "inactive"],
  ["CCN(CC)c1ccc(/C=N/NC(=O)c2ccc(Nc3ccnc(C(F)(F)F)c3)cc2)c(O)c1", "inactive"],
  ["CCOC(=O)C1=C(c2ccccc2)N=c2s/c(=C/c3ccc(Br)cc3)c(=O)n2C1c1ccc(O)cc1 (centres undefined)", "inactive"],
  ["CCCCCCCCn1ccc2cc(NC(=O)Cn3cc(CN4CCOCC4)nn3)ccc21", "inactive"],
  ["COc1cc(-c2nc3occn3c2-c2ccnc(NCCCNS(=O)(=O)c3ccccc3)n2)ccc1F", "inactive"]
]}

Prompt: GET /call?item= CCOC(=O)c1c(NC(=O)c2ccc(OC)cc2)sc2c(CN(C)C)c(O)ccc12 returns the recorded outcome of this test.
Response: active

---

# Test system: HT29 colon
# EXPERIMENT DESCRIPTION: NCI-60 one-dose screen, 48 h (100 = growth as untreated, 0 = no growth, -100 = all killed)
# COND: 10 µM unless noted
This is part of a sample that, as a whole, favours compounds with a hit. Of some 83,000 tested, about 20% had one in any assay.
Records here are stratified by growth; strata: low (below 10%), middle (10% to below 60%), high (60% or more)

Example cases with answers are listed next.
{"columns": ["MOLECULE", "CATEGORY"],
 "data": [
  ["COc1cc(C(=O)/C=C/c2c(-c3cccs3)nc3ccccn23)cc(OC)c1OC", "low"],
  ["Fc1ccc2c(c1)c(-c1nc(-c3c[nH]c4ncccc34)cs1)cn2CCCN1CCOCC1", "middle"],
  ["C#CCOc1ccc2ncnc(Nc3cccc(NC(=O)CCl)c3)c2c1", "middle"],
  ["COC(=O)/C=C1/SC(=Nc2cccc(Cl)c2)N(CCc2c[nH]c3ccc(O)cc23)C1=O", "middle"],
  ["O=C(CCCCCCN1CC(=O)N2[C@@H](c3ccc(Cl)cc3)c3[nH]c4ccccc4c3C[C@H]2C1=O)NO", "high"]
]}

Prompt: Class (by measured growth) for CN(C)Cc1ccc(C(=O)Nc2ccc3ncnc(Nc4ccc(Oc5cccc(F)c5)c(Cl)c4)c3c2)cc1
Response: low

Prompt: Class (by measured growth) for CCCCn1sc(=O)n(Cc2ccc(CNC(=O)OCc3ccc4c(Br)cc(Br)c(O)c4n3)cc2)c1=O
Response: high

Prompt: Class (by measured growth) for NC(=O)c1c(NC(=O)c2ccc(Cl)cc2)sc2c1CCC(=O)C2
Response: high

Prompt: Class (by measured growth) for CCOC(=O)CSc1nc2sc3c(c2c(=O)n1-c1ccc([N+](=O)[O-])cc1)CCCCC3
Response: high

Prompt: Class (by measured growth) for C#Cc1cccc(Nc2nc3ccc([N+](=O)[O-])cc3nc2Nc2cccc(C#C)c2)c1
Response: low

---

# Test system: SF-539 CNS
# EXPERIMENT DESCRIPTION: NCI-60 one-dose screen, 48 h (100 = growth as untreated, 0 = no growth, -100 = all killed)
# COND: 10 µM unless noted
Compounds without any hit were thinned out: in the full panel of roughly 83,000, 20% have a hit.
The threshold is inclusive: growth of exactly 40% counts as condition met; values below receive condition not met.

Example cases with answers are listed next.
{"columns": ["COMPOUND", "CATEGORY"],
 "data": [
  ["O=C(N/N=C/c1ccc(Cl)cc1Cl)c1ccc2nc(-c3ccc(Cl)cc3)[nH]c2c1", "condition not met"],
  ["CCCCCCCCCCCCCCCCCCOc1ccccc1CC(=O)NCC[N+]1(C)CCOCC1", "condition met"],
  ["COc1ccc2[nH]cc(-c3nc(-c4cn(C)c5ccncc45)cs3)c2c1", "condition not met"],
  ["COc1ccc(NC(=O)c2sc3nc(C)c(C(O)c4ccccc4)cc3c2N)cc1 (configuration not stated)", "condition not met"],
  ["O=C(Cn1nnc2ccccc21)Nc1ccc(-c2nc3ccccc3s2)cc1", "condition met"]
]}

Prompt: Is the recorded value of growth equal to or greater than 40% for this compound? Cc1ccc(-c2csc(NC(=O)N3CCN(c4cc5c(cc4F)c(=O)c(C(=O)O)cn5C4CC4)CC3)n2)cc1
Response: condition not met

Prompt: Is the recorded value of growth equal to or greater than 40% for this compound? OC(c1ccccc1)(c1ccccc1)c1ccccc1-c1ccccc1
Response: condition met

Prompt: Is the recorded value of growth equal to or greater than 40% for this compound? COc1cccc(C(=O)OCC(O)C(=O)NC23CC4CC(CC(C4)C2)C3)c1 (configuration not stated)
Response: condition met

Prompt: Is the recorded value of growth equal to or greater than 40% for this compound? N#C/C(=C\c1ccc(Cl)cc1Cl)C(=O)Nc1ncc(Cc2ccc(Cl)c(Cl)c2)s1
Response: condition met

Prompt: Is the recorded value of growth equal to or greater than 40% for this compound? N#Cc1c(-c2ccccc2)c(C#N)c2c(C#N)c(N)nn2c1N
Response: condition not met

Prompt: Is the recorded value of growth equal to or greater than 40% for this compound? N/C(=N\c1nc2ccccc2s1)NC(=NC1CCCCC1)NC1CCCCC1
Response: condition not met

Prompt: Is the recorded value of growth equal to or greater than 40% for this compound? CCCCSCC(=O)c1ccccc1
Response: condition met

Prompt: Is the recorded value of growth equal to or greater than 40% for this compound? O=C(Cn1nnc2ccccc21)N/N=C/c1ccccc1F
Response: condition met

Prompt: Is the recorded value of growth equal to or greater than 40% for this compound? COc1cc(C(=O)/C=C/c2ccc(N3CCN(C)CC3)cc2)cc(OC)c1OC
Response: condition met

Prompt: Is the recorded value of growth equal to or greater than 40% for this compound? C[C@@H]1CC[C@@]2(OC1)O[C@H]1C[C@H]3[C@@H]4CC=C5C[C@@H](O[C@@H]6O[C@H](CO)[C@@H](O[C@@H]7O[C@@H](CO)[C@H](O)[C@H]7O)[C@H](O)[C@H]6O[C@@H]6O[C@@H](C)[C@H](O)[C@@H](O)[C@H]6O)CC[C@]5(C)[C@H]4CC[C@]3(C)[C@H]1[C@@H]2C
Response: condition not met

Prompt: Is the recorded value of growth equal to or greater than 40% for this compound? CCc1ccc(CCC(=O)Nc2ncc(Cc3ccc(Cl)cc3)s2)o1
Response: condition not met

Prompt: Is the recorded value of growth equal to or greater than 40% for this compound? O=C1/C(=C/c2cccc([N+](=O)[O-])c2)COc2ccc(O)cc21
Response: condition met
